- Test system: SK-MEL-2 melanoma
- Assay Remarks: NCI-60 one-dose screen, 48 h (100 = growth as untreated, 0 = no growth, -100 = all killed)
- Protocol Conditions: 10 µM unless noted
Compounds without any hit were thinned out: in the full panel of roughly 83,000, 20% have a hit.
Each record here notes measured growth.
Numeric only. Scale: %

>>> quantitative_readout("O=COCCCc1ccccc1")
101
>>> quantitative_readout("O=C1C2=C(Nc3cc(Cl)ccc3N2)OC1c1c[nH]c2ccc(COc3ccccc3)cc12 (stereo not drawn)")
86.7
>>> quantitative_readout("CCC(C)NC(=O)c1ccccc1C (stereo not drawn)")
104
>>> quantitative_readout("Clc1ccc2c(c1)N(C1CCCN(Cc3ccccc3)C1)c1ccccc1S2 (stereo not drawn)")
17.1
>>> quantitative_readout("CCOC(=O)CN1CCC(C(=O)OCC)CC1")
111
>>> quantitative_readout("Cc1ccc([N+](=O)[O-])cc1Br")
95.6

Task item: Quick check: growth on SK-MEL-2 melanoma, item CC(NC(=O)CCl)c1ccccc1 (stereo not drawn) ?
Reply: 104

Task item: Recorded growth for COc1cc(Cl)ccc1C with SK-MEL-2 melanoma, please?
Reply: 30.3

Task item: Observed growth on SK-MEL-2 melanoma for CCCCCCCCCCCCCCCCC(=O)O , please.
Reply: 103

Task item: Give growth (SK-MEL-2 melanoma) of the following compound: COc1ccc(/C=N/Nc2nc3ccccc3s2)cc1
Reply: 117

---

- Test system: M14 melanoma
- Assay Remarks: NCI-60 one-dose screen, 48 h
- Protocol Conditions: 10 µM unless noted
The panel holds about 83,000 compounds, 20% with a hit somewhere; the sample as a whole holds those more often. Calls of active or inactive are those of the source. How the source made its calls: active means growth percent below 10; inactive means the rest.
Hello, when you answer, please use one of the following outcomes: True (active), False (inactive)

Study these solved cases before continuing.
>>> category_label("CCc1ccc(OC(=O)CCl)cc1")
"False"
>>> category_label("CC1CC(O)CC(C)(C)C1.CC1CC(O)CC(C)(C)C1.CC1CC(O)CC(C)(C)C1.CC1CC(O)CC(C)(C)C1.[Ti] (stereo not drawn)")
"False"

Kindly consider the entry below.
Task item: Dear all, I need the recorded test outcome for COc1cc(C2c3cc4c(cc3C(OC(=O)C[n+]3ccccc3)C3COC(=O)C23)OCO4)cc(OC)c1OC (stereo not drawn) , thank you.
Reply: True

---

// reported growth for each item listed
- System: TK-10 renal
- Assay Remarks: NCI-60 one-dose screen, 48 h (100 = growth as untreated, 0 = no growth, -100 = all killed)
- Protocol Conditions: 10 µM unless noted
- Method: Growth inhibition of the TK-10 human tumor cell line is measured as a screen for anti-cancer activity. Cells are grown in 96 well plates and exposed to the test compound for 48 hours. Compounds are tested at a single concentration, which is 10^-5 M for most compounds. The reported endpoint is percent growth (GI% or GIPRCNT), where numbers from 0 - 100% represent growth inhibition, and numbers from -100% - 0 represent cell death. For example, a value of 40 represents 60% growth inhibition. […]
This is part of a sample that, as a whole, favours compounds with a hit. Of some 83,000 tested, about 20% had one in any assay. Active and inactive are the calls of the source. How the source made its calls: active means growth percent below 10; inactive means the rest.

// solved cases for growth follow
>>> result("N#Cc1c[nH]n2ccnc12")
"103% (inactive)"
>>> result("CCOC(=O)c1ccc(N2C(=O)C(Cl)(c3ccccc3)C2c2ccco2)cc1 (stereo unspecified)")
"106% (inactive)"

Task item: Item COc1ccc2oc3c(ccc[n+]3C)c(=O)c2c1 has what recorded growth?
Reply: 97.6% (inactive)

Task item: // lookup growth for COc1ccc2nccc(Cl)c2c1
Reply: 103% (inactive)

Task item: Please give the measured growth for this molecule: O=C(O)c1ccc2c3ccc(C(=O)O)c4c(C(=O)O)ccc(c5ccc(C(=O)O)c1c25)c43
Reply: 117% (inactive)

Task item: Could you tell me which growth is on file for Nc1ccc2ccc(NS(=O)(=O)N3CCCCC3)cc2c1 ?
Reply: 47.1% (inactive)

Task item: Returns the measured growth for the input molecule. Input: O=C(c1ccncc1)c1c(Cc2ccccc2)ccc2ccccc12
Reply: 107% (inactive)

---

Property: growth; scope: individual compounds
- Test system: SW-620 colon
- Assay Remarks: NCI-60 one-dose screen, 48 h (100 = growth as untreated, 0 = no growth, -100 = all killed)
- Protocol Conditions: 10 µM unless noted
About 83,000 compounds went through this panel and 20% of them were active in at least one assay; those are over-represented in the sample as a whole. Active and inactive are the calls of the source. The calls were made as follows: active = growth percent below 10; inactive = the rest.

>>> result("COc1cc(Cl)ccc1C")
"52.8% (inactive)"
>>> result("CC(O)CCNC(c1ccccc1)C(O)c1ccccc1 (centres undefined)")
"110% (inactive)"
>>> result("CC(=O)C[n+]1ccccc1Sc1ccc(Cl)cc1")
"91.6% (inactive)"

Task item: Entry CCC(C)(O)CCC(C)(O)CC (centres undefined) : reported growth = ?
Reply: 112% (inactive)

---

- Tested on: T-47D breast
- Assay Remarks: NCI-60 one-dose screen, 48 h (100 = growth as untreated, 0 = no growth, -100 = all killed)
- Protocol Conditions: 10 µM unless noted
About 83,000 compounds went through this panel and 20% of them were active in at least one assay; those are over-represented in the sample as a whole.
Measured growth values are reported for all entries that follow.
Respond numerically; units are % and should not be typed.

Below, 4 compounds whose answers are already recorded.
>>> quantitative_readout("COC(=O)c1ccccc1Cl")
94
>>> quantitative_readout("Clc1ccc2c(c1)N(C1CCCN(Cc3ccccc3)C1)c1ccccc1S2 (centres undefined)")
69
>>> quantitative_readout("O=C1c2ccccc2CN1c1ccccc1")
95.8
>>> quantitative_readout("CCc1ccccc1-n1[nH]c(C)c(C=N)c1=O")
126

Task item: Consider the compound CCCCCCCCCCCCCCCCC(=O)O and give its measured growth.
Reply: 104

Task item: What value of growth has been reported for the following compound? COc1cc2c(cc1O)C(=O)CCCC2
Reply: 94.8

Task item: Any idea what its growth is? The compound is OCCS
Reply: 92.8

Task item: For C/C=C(/C(=O)NC(N)=O)C(C)C , what is its reported growth?
Reply: 99.1

Task item: State the recorded growth for this entry: COc1cc2oc3cc(=O)cc4oc(-c5ccccc5)cc(c2c2c1CCC(c1ccccc1)O2)c43 (centres undefined)
Reply: 55.8

---

Measured growth accompanies every entry in the list below.
- Test system: 786-0 renal
- Assay Remarks: NCI-60 one-dose screen, 48 h (100 = growth as untreated, 0 = no growth, -100 = all killed)
- Protocol Conditions: 10 µM unless noted
Compounds without any hit were thinned out: in the full panel of roughly 83,000, 20% have a hit. The source made the active and inactive calls. Rule for the calls: active = growth percent below 10; inactive = the rest.

Example results:
>>> result("COc1cc(C2c3cc4c(cc3C(OC(=O)C[n+]3ccccc3)C3COC(=O)C23)OCO4)cc(OC)c1OC (stereo not given)")
"25.8% (inactive)"
>>> result("N#CC(=S)Nc1ccc(Cl)c(Cl)c1")
"14.2% (inactive)"
>>> result("COC(=O)c1cc(C(=O)OC)cc([N+](=O)[O-])c1")
"92.9% (inactive)"
>>> result("COc1ccc(CCNC(=S)NN)cc1OC")
"109% (inactive)"
>>> result("COc1ccc2oc3c(ccc[n+]3C)c(=O)c2c1")
"105% (inactive)"

Task item: Given CCCC(=O)Oc1ccc(CC)cc1 , state its recorded growth.
Reply: 99.7% (inactive)

Task item: Look up growth for this compound: Cn1c(-c2ccccc2)cc(=O)cc1-c1ccccc1
Reply: 106% (inactive)

Task item: Using the record for CCn1c2ccc(N(C)C)cc2c2cc(N(C)C)ccc21 , report its growth.
Reply: 102% (inactive)

Task item: Requested read-out: growth. Entry: CCOCCC(=O)O
Reply: 103% (inactive)

Task item: I would be grateful if you could share the reported growth for O=c1[nH]c(=O)c2[nH]c(=O)[nH]c2[nH]1 .
Reply: 94.2% (inactive)

Task item: What value of growth has been recorded for this entry: Cc1ccc(S(=O)(=O)n2ccnc2)cc1
Reply: 138% (inactive)

Task item: I would be grateful if you could share the reported growth for Nc1ccc2ccc(NS(=O)(=O)N3CCCCC3)cc2c1 .
Reply: 30.7% (inactive)

Task item: Item CCN(CC)C(=S)SCCO has what recorded growth?
Reply: 104% (inactive)

---

- Tested on: SF-268 CNS
- Assay Remarks: NCI-60 one-dose screen, 48 h (100 = growth as untreated, 0 = no growth, -100 = all killed)
- Protocol Conditions: 10 µM unless noted
Compounds without any hit were thinned out: in the full panel of roughly 83,000, 20% have a hit.
Property Label: growth (%)
Field format: number, assumed %, no unit text.

# count of solved cases: 3
>>> quantitative_readout("O=[N+]([O-])c1cccc(N=Cc2ccccc2)c1")
105
>>> quantitative_readout("CCN(CC)CCO/N=C1\\CC(c2ccc(OC)c(OC)c2)Oc2ccccc21 (stereo not given)")
99.3
>>> quantitative_readout("COc1cc2c(cc1O)C(=O)CCCC2")
90.3

Task item: Request the reported growth associated with CC(O)CCNC(c1ccccc1)C(O)c1ccccc1 (stereo not given)
Reply: 111

Task item: So what's the measured growth for this one? CC1CC(O)CC(C)(C)C1.CC1CC(O)CC(C)(C)C1.CC1CC(O)CC(C)(C)C1.CC1CC(O)CC(C)(C)C1.[Ti] (stereo not given)
Reply: 115
